target: COX-2 in RAW 264.7 macrophages (Mus musculus, UniProt Q05769); construct: endogenous in cells; assay: RAW cells assay: oxygenation of 2-AG and AA; conditions: conversion of 2-AG to PGE2-G/PGD2-G
Sequence (Q05769 18-604): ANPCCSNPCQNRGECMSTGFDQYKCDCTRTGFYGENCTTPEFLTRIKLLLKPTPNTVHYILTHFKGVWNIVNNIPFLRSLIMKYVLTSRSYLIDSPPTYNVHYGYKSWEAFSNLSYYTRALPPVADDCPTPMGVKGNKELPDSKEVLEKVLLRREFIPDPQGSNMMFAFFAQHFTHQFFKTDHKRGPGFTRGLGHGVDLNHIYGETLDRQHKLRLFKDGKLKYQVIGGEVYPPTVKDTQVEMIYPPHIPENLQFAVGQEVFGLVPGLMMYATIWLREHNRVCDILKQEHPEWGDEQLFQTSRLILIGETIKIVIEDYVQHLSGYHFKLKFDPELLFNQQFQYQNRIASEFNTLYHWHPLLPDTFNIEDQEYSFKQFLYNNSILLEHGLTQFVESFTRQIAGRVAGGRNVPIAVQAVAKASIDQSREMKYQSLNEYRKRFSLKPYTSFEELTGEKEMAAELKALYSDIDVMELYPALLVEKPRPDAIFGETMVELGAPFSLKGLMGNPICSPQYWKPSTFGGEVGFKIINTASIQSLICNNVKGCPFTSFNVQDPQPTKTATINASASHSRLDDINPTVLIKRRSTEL
Listed next: entries and their corresponding IC50.
Give the value in µM but do not write µM after it.

Name the value of IC50 reported for `CC(C)(C(=O)O)c1ccc(-c2ccccc2)c(F)c1` when tested on COX-2 in RAW 264.7 macrophages (Mus musculus, UniProt Q05769).
5.2

Please turn your attention to the following entry.
Please report IC50 with COX-2 in RAW 264.7 macrophages (Mus musculus, UniProt Q05769) for item `O=C(O)C1(c2ccc(-c3ccccc3)c(F)c2)CC1` .
10.2
